Taken from patent US20230131899A1.

# Tgt: E. coli CsgA (Escherichia coli, UniProt P28307)
# Construct: made in house; host or cells: E. coli NEB 3016 slyD::kan, pET11d
# Sequence (P28307 23-151): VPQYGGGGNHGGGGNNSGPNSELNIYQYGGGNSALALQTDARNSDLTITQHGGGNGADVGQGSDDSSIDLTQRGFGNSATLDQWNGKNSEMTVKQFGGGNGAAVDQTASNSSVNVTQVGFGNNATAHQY
# Protocol: In vitro ThioflavinT assay of CsgA aggregation (CsgA ThT Assay)
# Assay type: biochemical
# Assay conditions: read-out: CsgA ThT Assay (2 μM CsgA) % Control Bmax 25 μM, mean Bmax as percentage of DMSO control; CsgA 2 μM, white plates; compound 25 μM
Could you please mark MET for values of remaining activity at 25 µM below 30% and NOT MET for values at or above it?

Does this compound meet the criterion remaining activity at 25 µM < 30%? O=C(O)C1CN(Cc2ccncc2)c2c(-c3cccc(C(F)(F)F)c3)c(Cc3cccc4ccccc34)c(Cl)c(=O)n21 (stereo not drawn)
NOT MET

Does this compound meet the criterion remaining activity at 25 µM < 30%? CCCN1CC(C(=O)O)n2c(c(-c3cccc(C(F)(F)F)c3)c(Cc3cccc4ccccc34)c(OC(C)C)c2=O)S1(=O)=O (stereo not drawn)
NOT MET

Does this compound meet the criterion remaining activity at 25 µM < 30%? NC(=O)c1c(Cc2cccc3ccccc23)c(-c2cccc(C(F)(F)F)c2)c2n(c1=O)C(C(=O)O)CN(C1CCCC1)S2(=O)=O (stereo not drawn)
MET

Does this compound meet the criterion remaining activity at 25 µM < 30%? CCCCN1CC(C(=O)O)n2c(c(-c3cccc(C(F)(F)F)c3)c(Cc3cccc4ccccc34)c(C(N)=O)c2=O)S1(=O)=O (stereo not drawn)
NOT MET

Does this compound meet the criterion remaining activity at 25 µM < 30%? O=C(O)C1CN(Cc2ccccc2)c2c(-c3cccc(C(F)(F)F)c3)c(Cc3cccc4cnccc34)c(Cl)c(=O)n21 (stereo not drawn)
NOT MET

Does this compound meet the criterion remaining activity at 25 µM < 30%? O=C(O)C1CN(Cc2ccccc2)c2c(-c3cccc(C(F)(F)F)c3)c(Cc3cccc4cccnc34)c(Cl)c(=O)n21 (stereo not drawn)
NOT MET

----------
Please respond with reported remaining activity at 25 µM for every item in the list.
# Tgt: E. coli CsgA (Escherichia coli, UniProt P28307)
# Construct: made in house; host or cells: E. coli NEB 3016 slyD::kan, pET11d
# Protocol: In vitro ThioflavinT assay of CsgA aggregation (CsgA ThT Assay)
# Assay type: biochemical
# Assay conditions: read-out: CsgA ThT Assay (10 μM CsgA) % Control AUC at 1005 minutes, 25 μM (activity range), CsgA 10 μM, black plates; compound 25 μM; 1005 minutes; class symbol
# Experimental: In vitro ThioflavinT assay to determine effects of compounds on CsgA aggregation. […] Protein concentration was assessed by the NanoDrop technique (Thermo Scientific), as is familiar to one skilled in the art. […] During the assay, plates were shaken initially for 5 seconds and subsequently for 3 seconds prior to fluorescent readings. Readings were performed every 15 minutes for up to 1005 minutes. The effect of compounds on CsgA aggregation in the assay was determined with data from 0-17 hours. […]

Specify measured remaining activity at 25 µM for CN(C)C(=O)C1CN(C)S(=O)(=O)c2c(-c3cccc(C(F)(F)F)c3)c(Cc3cccc4ccccc34)cc(=O)n21 (stereo not shown) .
> 60%

Specify measured remaining activity at 25 µM for CN1CC(C(=O)O)n2c(c(-c3cccc(C(F)(F)F)c3)c(Cc3ccc(N)c4ccccc34)cc2=O)S1(=O)=O (stereo not shown) .
> 60%

Specify measured remaining activity at 25 µM for CN1CC(C(=O)O)n2c1c(-c1cccc(C(F)(F)F)c1)c(Cc1cccc3ccccc13)cc2=O (stereo not shown) .
> 60%

Specify measured remaining activity at 25 µM for Cn1cc(C(=O)O)n2c(=O)cc(Cc3cccc4ccccc34)c(-c3cccc(C(F)(F)F)c3)c12 .
> 60%

Specify measured remaining activity at 25 µM for CCCCN1CC(C(=O)O)n2c(c(-c3cccc(C(F)(F)F)c3)c(Cc3cccc4ccccc34)c(N)c2=O)S1(=O)=O (stereo not shown) .
31 to 60%

Specify measured remaining activity at 25 µM for Nc1c(Cc2cccc3ccccc23)c(-c2cccc(C(F)(F)F)c2)c2n(c1=O)C(C(=O)O)CN(CCCCCO)S2(=O)=O (stereo not shown) .
31 to 60%

Specify measured remaining activity at 25 µM for CN1CC(C(=O)O)n2c(c(-c3cccc(C(F)(F)F)c3)c(Cc3cccc4ccccc34)c(CO)c2=O)S1(=O)=O (stereo not shown) .
> 60%
